// reported inhibition at 1 µM per item
# assay system: recombinant human 17β-HSD1 (Homo sapiens, UniProt P14061)
# Construct: made in house; host or cells: Sf9 insect cells (baculovirus, Bac to Bac Expression System)
# Sequence (P14061 whole entry): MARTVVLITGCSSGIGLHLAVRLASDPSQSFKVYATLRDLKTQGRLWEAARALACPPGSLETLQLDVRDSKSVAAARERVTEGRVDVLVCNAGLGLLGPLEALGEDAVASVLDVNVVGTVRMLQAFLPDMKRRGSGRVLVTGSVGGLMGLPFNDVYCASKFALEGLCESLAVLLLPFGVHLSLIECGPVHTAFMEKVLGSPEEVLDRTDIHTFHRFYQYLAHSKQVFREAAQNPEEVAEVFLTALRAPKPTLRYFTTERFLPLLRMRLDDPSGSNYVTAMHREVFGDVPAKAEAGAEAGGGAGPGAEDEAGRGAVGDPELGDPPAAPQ
# method: Recombinant 17β-HSD1 assay (HPLC, 3H-estrone conversion)
# Format: biochemical
# details: 0.5 h; 1 μm compound; 30 nM estrone, 1 mM NADPH, 30 min RT; read-out: Inhibition of rec. 17β-HSD1
Reply numerically in %, unit not repeated.

Previously resolved entries follow.
1. C[C@]12CC[C@@H]3c4ccc(B(O)O)cc4CC[C@H]3[C@@H]1[C@H](CCC(=O)N1CCOCC1)CC2=O [Compound 33]	59
2. Cc1cccc2c(CCNC(=O)CC[C@@H]3CC(=O)[C@@]4(C)CC[C@@H]5c6ccc(B(O)O)cc6CC[C@H]5[C@H]34)c[nH]c12 [Compound 30]	56

The reported value for Cc1cnc(NC(=O)CC[C@@H]2CC(=O)[C@@]3(C)CC[C@@H]4c5ccc(B(O)O)cc5CC[C@H]4[C@H]23)s1 [Compound 11] in terms of inhibition at 1 µM is 88
